Reported t1/2 values for a set of sequences
# Measurement notes: Half-lives of peptides in murine intestinal fluid (intestinal enzyme solution)
# Condition info: 16-mer peptides; relates to undiluted murine intestinal fluid; 90 min incubation in dilutions, 37° C.
Experimental readout: t1/2 (s)

>>> observed_value("PGFGDSIEAQCGTSVN")
5.0348
>>> observed_value("KLPGFGDSIEAQCGTS")
6.4211
>>> observed_value("FDKLPGFGDSIEAQCG")
5.6930
>>> observed_value("FGDSIEAQCGTSVNVH")
1.3951
